The reported numbers originate from ChEMBL document CHEMBL4270661.

- system tested: Tubulin (Homo sapiens) (UniProt P68371+Q9H4B7+P0DPH7+P68366+Q13509+Q71U36+P04350+Q3ZCM7+P07437+P68363+Q9BQE3+Q6PEY2+Q13885+Q9BVA1+Q9BUF5)
- protocol: Inhibition of [3H]-colchicine binding to tubulin (unknown origin) at 0.5 uM relative to control
- Format: protein-complex assay
observable: inhibition (%)

smiles text: COc1ccc(N(C)c2nc(C)nc3ccn(C)c23)cc1.Cl
unit text: %
observed measurement: 79

smiles text: CCn1ccc2nc(C)nc(N(C)c3ccc(OC)cc3)c21
unit text: %
observed measurement: 79

P: COc1ccc(N(C)c2nc(C)nc3ccn(C(C)C)c23)cc1.Cl
Q: CCCn1ccc2nc(C)nc(N(C)c3ccc(OC)cc3)c21.Cl
Of P and Q , which shows the smaller inhibition value? Mark your selection by writing its label.
P
(P: 60%, Q: 86%)

---

- system tested: Tubulin (Homo sapiens) (UniProt P68371+Q9H4B7+P0DPH7+P68366+Q13509+Q71U36+P04350+Q3ZCM7+P07437+P68363+Q9BQE3+Q6PEY2+Q13885+Q9BVA1+Q9BUF5)
- protocol: Inhibition of [3H]-colchicine binding to tubulin (unknown origin) at 5 uM relative to control
- Assay type: protein-complex assay
observable: inhibition (%)

Consider the worked cases shown below.
smiles text: COc1ccc(Nc2nc(C)nc3ccn(C)c23)c(OC)c1
inhibition [%]: 14
//
smiles text: COc1ccc(Nc2nc(C)nc3cc[nH]c23)c(OC)c1
inhibition [%]: 0
//
smiles text: CCCn1ccc2nc(C)nc(N(C)c3ccc(OC)cc3)c21.Cl
inhibition [%]: 97
//
smiles text: COc1ccc(Nc2nc(C)nc3ccn(C)c23)cc1
inhibition [%]: 4.2
//
smiles text: COc1ccc2c(c1)CCCN2c1nc(C)nc2cc[nH]c12
inhibition [%]: 70

I: CCCCn1ccc2nc(C)nc(N(C)c3ccc(OC)cc3)c21.Cl
II: COc1ccc(Nc2nc(C)nc3cc[nH]c23)cc1
Of I and II , which shows the smaller inhibition value? Mark your selection by writing its label.
II
(II: 5.8%, I: 96%)

A: COc1ccc(N(C)c2nc(C)nc3ccn(C(C)C)c23)cc1.Cl
B: COc1ccc(N(C)c2nc(C)nc3cc[nH]c23)cc1
Of A and B , which shows the smaller inhibition value? Mark your selection by writing its label.
B
(B: 60%, A: 92%)

---

- system tested: Tubulin (Homo sapiens) (UniProt P68371+Q9H4B7+P0DPH7+P68366+Q13509+Q71U36+P04350+Q3ZCM7+P07437+P68363+Q9BQE3+Q6PEY2+Q13885+Q9BVA1+Q9BUF5)
- protocol: Inhibition of [3H]-colchicine binding to tubulin (unknown origin) at 0.5 uM relative to control
- Type: protein-complex assay
observable: inhibition (%)

smiles text: COc1ccc(N(C)c2nc(C)nc3ccn(CC(C)C)c23)cc1.Cl
inhibition (%): 67

smiles text: CCCCn1ccc2nc(C)nc(N(C)c3ccc(OC)cc3)c21.Cl
inhibition (%): 82

smiles text: COc1ccc2c(c1)CCCN2c1nc(C)nc2ccn(C)c12.Cl
inhibition (%): 72

---

- system tested: Tubulin (Homo sapiens) (UniProt P68371+Q9H4B7+P0DPH7+P68366+Q13509+Q71U36+P04350+Q3ZCM7+P07437+P68363+Q9BQE3+Q6PEY2+Q13885+Q9BVA1+Q9BUF5)
- protocol: Inhibition of [3H]-colchicine binding to tubulin (unknown origin) at 5 uM relative to control
- Format: protein-complex assay
observable: inhibition (%)

smiles text: CCn1ccc2nc(C)nc(N(C)c3ccc(OC)cc3)c21
inhibition, %: 96
--
smiles text: COc1ccc(N(C)c2nc(C)nc3ccn(C)c23)cc1.Cl
inhibition, %: 99
--
smiles text: COc1ccc2c(c1)CCCN2c1nc(C)nc2ccn(C)c12.Cl
inhibition, %: 98
--
smiles text: COc1ccc(N(C)c2nc(C)nc3ccn(CC(C)C)c23)cc1.Cl
inhibition, %: 95
